Measured inhibition accompanies every entry in the list below.
molecular target: Casein kinase I isoform gamma-2 (Homo sapiens); conditions: at 1 µM
Description: GSK_PKIS: CK1-g2 mean inhibition at 1 uM [Nanosyn]

{"cpd_smiles": "Fc1ccc(-c2nn3ncccc3c2-c2ccnc(Nc3ccc4c(c3)OCCO4)n2)cc1", "inhibition [%]": 61.6}
{"cpd_smiles": "N#Cc1c(NC(=O)CN2CCOCC2)sc2c1CCCC2", "inhibition [%]": 6.04}
{"cpd_smiles": "CCCN1CCC(c2ccc(Nc3nc(Nc4cc(F)ccc4C(N)=O)c4cc[nH]c4n3)c(OC)c2)CC1", "inhibition [%]": 72.7}
{"cpd_smiles": "N#Cc1c(NC(=O)c2ccc(F)cc2)sc2c1CCCC2", "inhibition [%]": 0.5}
{"cpd_smiles": "Clc1ccc(-c2nn3ncccc3c2-c2ccnc(Nc3ccccc3)n2)cc1", "inhibition [%]": 1.83}
{"cpd_smiles": "CC(C)(CO)CNC(=O)c1ccc2c(c1)/C(=N/Nc1ccc(S(N)(=O)=O)cc1)C(=O)N2", "inhibition [%]": 3.6}
{"cpd_smiles": "COc1cc2ncn(-c3cc(OCc4ccccc4C(F)(F)F)c(C(=O)N(C)C)s3)c2cc1OC", "inhibition [%]": 0.02}
{"cpd_smiles": "COC(=O)c1sc(-n2cnc3cc(OC)c(OC)cc32)cc1OCc1ccccc1C(F)(F)F", "inhibition [%]": 4.73}
{"cpd_smiles": "CN(C)CCOc1ccc(-c2nc(-c3ccncc3)c(-c3ccc4c(c3)CC/C4=N\\O)[nH]2)cc1", "inhibition [%]": 4.12}
{"cpd_smiles": "CC(C)COC(=O)c1ccc2c(c1)/C(=C/Nc1ccc(S(N)(=O)=O)cc1)C(=O)N2", "inhibition [%]": 14.2}
{"cpd_smiles": "NC(=O)c1sc(-n2cnc3ccc(C(F)(F)F)cc32)cc1OCc1ccccc1Br", "inhibition [%]": 4.58}
{"cpd_smiles": "CNC(=O)c1cc(-c2ccc(F)cc2)cc(-c2ccc(S(=O)(=O)N3CCCC3)cc2)c1N", "inhibition [%]": 2.38}
{"cpd_smiles": "CC(=O)NCc1cccc(C#Cc2cncnc2Nc2ccc(OCc3cccc(F)c3)c(Cl)c2)c1", "inhibition [%]": 0.99}
{"cpd_smiles": "Cc1ccc2c(-c3ccnc(Nc4ccccc4)n3)c(-c3ccc(F)cc3)nn2n1", "inhibition [%]": 36.6}
{"cpd_smiles": "CNC(=O)c1cncc(/C=C/c2ccccc2Cl)c1", "inhibition [%]": -0.77}
{"cpd_smiles": "[O-][S+]1CCN(Cc2ccc(-c3ccc4ncnc(Nc5ccc(OCc6cccc(F)c6)c(Cl)c5)c4c3)o2)CC1", "inhibition [%]": 5.36}
{"cpd_smiles": "COc1ccc2c(-c3ccnc(Nc4cccc(OC(F)(F)F)c4)n3)cnn2n1", "inhibition [%]": 7.44}
{"cpd_smiles": "CCn1c(-c2nonc2N)nc2cnc(Oc3cccc(NC(=O)c4ccc(N(C)C)cc4)c3)cc21", "inhibition [%]": 1.09}
{"cpd_smiles": "COC(=O)Nc1nc2ccc(Oc3ccc(NC(=O)Nc4cccc(Cl)c4)cc3)cc2[nH]1", "inhibition [%]": 1.64}
{"cpd_smiles": "CN1CCC(n2cnc(-c3ccc(F)cc3)c2-c2ccnc(N)n2)CC1", "inhibition [%]": 4.69}
